assayTarget: T1, human GPC3-His protein (human, UniProt P51654 25-559, limits assumed)
T1 construct: also called human GPC3 protein; not shown: His tag
assayMethodText: SPR, antibody captured on Protein A chip, human GPC3-His injected, 1:1 Langmuir model;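 note: flow cell at 25 °C, antigen injected for 240 s at five twofold dilutions starting at 200 nM, dissociation followed up to 600 s, double-referenced sensorgrams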
propertyName: koff (s⁻¹)
The reply should be a number in s⁻¹, with the unit left off.

Some solved cases for reference:
- binder: "hAb006LH1L1b (antibody, human IgG1, V domains shown, Humanized F3.38.7) VH: EVQLVQSGAEVKKPGSSVKVSCKASGYTFSDYEIHWVRQAPGQGLEWMGAIDPKTGNTAYNQKFMGRVTITADKSTSTAYMELSSLRSEDTAVYYCTRYFSFAYWGQGTLVTVSS VL: DIVMTQTPLSLPVTPGEPASISCRSSQTFVHSNANTYLQWYLQKPGQSPQLLIYKVSNRFSGVPDRFSGSGSGTDFTLKISRVEAEDVGVYYCFQGSHVPYTFGQGTKLEIK"
  propertyName: "koff"
  unitLabel: "s⁻¹"
  testResult: 0.00125
- binder: "hAb005LH1L1b (antibody, human IgG1, V domains shown, Humanized F3.54.12) VH: EVQLVQSGAEVKKPGASVKVSCKASGYTFTDYEMHWVRQAPGQGLEWMGAIDPETGNTAYIQKFKGRVTMTTDKSTSTAYMELRSLRSDDTAVYYCTRFYSYSHWGQGTTVTVSS VL: DIVMTQTPLSLPVTPGEPASISCRSSQSLVHSNRNTYLHWYLQKPGQSPQLLIYKVSNRFSGVPDRFSGSGSGTDFTLKISRVEAEDVGVYYCSQNTHVPPTFGGGTKVEIK"
  propertyName: "koff"
  unitLabel: "s⁻¹"
  testResult: 0.00231
- binder: "hAb007LH1L1 (antibody, human IgG1, V domains shown, Humanized F3.81.19) VH: EVQLVQSGAEVKKPGSSVKVSCKASGYTFSDYEMHWVRQAPGQGLEWMGTIDPETGNTAYNQKFKGRVTITADKSTSTAYMELSSLRSEDTAVYYCTRPYSLTYWGQGTLVTVSS VL: DIVMTQTPLSLPVTPGEPASISCRSSQSFVHSNGDTYLQWYLQKPGQSPQLLIYKVSNRFSGVPDRFSGSGSGTDFTLKISRVEAEDVGVYYCFQGSHVPYTFGQGTKLEIK"
  propertyName: "koff"
  unitLabel: "s⁻¹"
  testResult: 0.000114

Request: Give reported koff value for hAb006LH2L1b (antibody, human IgG1, V domains shown, Humanized F3.38.7) VH: EVQLVQSGAEVKKPGSSVKVSCKASGYTFTDYEIHWVRQAPGQGLEWMGAIDPKTGNTAYNQKFMGRVTITADKSTSTAYMELSSLRSEDTAVYYCTRYFSFAYWGQGTLVTVSS VL: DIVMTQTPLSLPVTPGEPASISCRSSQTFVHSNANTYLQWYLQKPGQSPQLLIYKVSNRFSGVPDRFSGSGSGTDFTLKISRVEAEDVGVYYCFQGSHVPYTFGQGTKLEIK
Result: 0.00128

Request: Please indicate koff recorded for hAb001H1aL1b (antibody, human IgG1, V domains shown, Humanized F2.169.2) VH: EVQLVESGGGLVQPGGSLRLSCAASGFSFNTNAMNWVRQAPGKGLEWVGRIRSKSNNYATYYADSVKGRFTISRDDSKNSLYLQMNSLKTEDTAVYYCVRDGYYVLFAYWGQGTLVTVSS VL: DIVMTQTPLSLPVTPGEPASISCRFSQSIVNSNANTYLEWFLQKPGQSPQLLIYKVSNRFSGVPDRFSGSGSGTDFTLKISRVEAEDVGVYYCFQGSHVPFTFGQGTKLEIK
Result: 0.0167
